Source listed as ChEMBL document CHEMBL1156701.

System: Staphylococcus aureus
assayProcedure: Antibacterial activity against methicillin-resistant Staphylococcus aureus ATCC 43300 after 18 hrs by macro broth dilution assay
Type: functional
settings: Staphylococcus aureus, ATCC 43300, 18 h
endpoint: MIC (µg/mL)
Write the number in µg/mL without appending the unit.

# givenSmiles, recordedMeasurement
rows = [
    ("FC(F)(F)c1ccc(Nc2nc3cc(Cl)ccc3[nH]2)cc1", 0.39),
    ("N#Cc1ccc2[nH]c(Nc3ccc(Cl)c(Cl)c3)nc2c1", 1.56),
    ("O=[N+]([O-])c1ccc2[nH]c(Nc3ccc(Cl)c(Cl)c3)nc2c1", 1.56),
    ("COc1ccc(Nc2nc3cc(Cl)ccc3[nH]2)cc1", 50),
    ("Nc1ccc2[nH]c(Nc3ccc(Cl)c(Cl)c3)nc2c1", 50),
]

Challenge: Reported MIC for "Fc1cc(F)cc(Nc2nc3cc(Cl)ccc3[nH]2)c1" : what is it?
Response given: 1.56

Challenge: I have this compound here, "Clc1ccc(Nc2nc3cc(I)ccc3[nH]2)cc1Cl" , and I need its recorded MIC.
Response given: 0.78

Challenge: Bench note: what MIC did "CC1(C)S[C@@H]2[C@H](NC(=O)[C@H](N)c3ccccc3)C(=O)N2[C@H]1C(=O)O" show?
Response given: 25

Challenge: State the recorded MIC for this entry: "COC(=O)c1ccc2[nH]c(Nc3ccc(Cl)c(Cl)c3)nc2c1"
Response given: 0.78

Challenge: Using the record for "[N-]=[N+]=Nc1ccc(Nc2nc3cc(Cl)ccc3[nH]2)cc1" , report its MIC.
Response given: 6.25

Challenge: Could you tell me which MIC is on file for "Clc1ccc(Oc2ccccc2Nc2nc3cc(Cl)ccc3[nH]2)cc1" ?
Response given: 1.56

* * *

Tested on: Staphylococcus aureus
assayProcedure: Antibacterial activity against methicillin-resistant Staphylococcus aureus ATCC 43300 after 18 hrs by macro broth dilution assay
Assay type: functional
settings: Staphylococcus aureus, ATCC 43300, 18 h
Response field label takes 1 when MIC is strictly below 2 µg/mL and -1 in all other cases.

Consider the worked cases shown below.
# givenSmiles, group
data = [
    ("Fc1ccc(Nc2nc3cc(Cl)ccc3[nH]2)cc1Cl", 1),
    ("Clc1ccc(Nc2nc3cc(Cl)c(Cl)cc3[nH]2)cc1Cl", 1),
    ("Clc1ccc2[nH]c(Nc3ccc(Cl)c(Cl)c3)nc2c1", 1),
    ("Clc1cc(Cl)cc(Nc2nc3cc(Cl)ccc3[nH]2)c1", 1),
    ("O=[N+]([O-])c1ccc2[nH]c(Nc3ccc(Cl)cc3)nc2c1", 1),
    ("Fc1ccc2[nH]c(Nc3ccc(Cl)c(Cl)c3)nc2c1", 1),
    ("CC1(C)S[C@@H]2[C@H](NC(=O)[C@H](N)c3ccccc3)C(=O)N2[C@H]1C(=O)OCOC(=O)[C@@H]1N2C(=O)C[C@H]2S(=O)(=O)C1(C)C", -1),
    ("FC(F)(F)c1ccc(Cl)c(Nc2nc3cc(Cl)ccc3[nH]2)c1", 1),
]

Challenge: Record "Fc1cccc(Nc2nc3cc(Cl)ccc3[nH]2)c1" : is its MIC strictly below 2 µg/mL?
Response given: -1

Challenge: Just wondering, is MIC of "Clc1ccc(Nc2nc3cc(Cl)ccc3[nH]2)c(Cl)c1" below 2 µg/mL?
Response given: 1
